Test system: INS1
Assay: beta cell apoptosis inhibitors, cytokine rescue, dose response, luminescence, retest (AID 449756);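 note: cell death triggered by IL-1 beta plus TNF-alpha plus IFN-gamma mixture; protective hits raise ATP signal compared with cytokine alone wells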
Format: functional, cell-based
Settings: Rattus norvegicus
The source made the active and inactive calls.
For each entry below, report its AC50 value.

**Q:** Request - read-out AC50 | tested on INS1 | compound COc1ccc(CCNc2c(C)c(C)nc3ncnn23)cc1
**A:** 2570 nM (active)

**Q:** Next up: CN1/C(=C\P(=O)(N(C)C)N(C)C)C(C)(C)c2ccccc21
**A:** 4320 nM (active)

**Q:** Next up: Cc1[nH]n(-c2ccccc2)c(=O)c1/C=N/NC(=O)c1cccc(F)c1
**A:** 2030 nM (active)

**Q:** Next up: CC(Oc1ccc(Br)cc1)c1nc2c3ccccc3nc(S)n2n1 (stereo not drawn)
**A:** 7230 nM (active)

**Q:** Next up: CC(=O)Oc1c(C)cc(Cl)cc1C(=O)Nc1ccc([N+](=O)[O-])cc1Cl
**A:** 1370 nM (active)

**Q:** Next up: CCN(CC)c1ccc(/C=N/NC(=O)Cc2cccs2)c(O)c1
**A:** 916 nM (active)

**Q:** Next up: Cc1ccc2nc(-c3ccc(-c4cccc(Cl)c4)cc3)c(NCc3ccccc3)n2c1
**A:** 2290 nM (active)

**Q:** Next up: NC(=S)N/N=C/c1c(O)ccc2ccccc12
**A:** 1090 nM (active)

---

Target: Heat shock factor protein 1 (Mus musculus)
Sequence (P38532 whole entry): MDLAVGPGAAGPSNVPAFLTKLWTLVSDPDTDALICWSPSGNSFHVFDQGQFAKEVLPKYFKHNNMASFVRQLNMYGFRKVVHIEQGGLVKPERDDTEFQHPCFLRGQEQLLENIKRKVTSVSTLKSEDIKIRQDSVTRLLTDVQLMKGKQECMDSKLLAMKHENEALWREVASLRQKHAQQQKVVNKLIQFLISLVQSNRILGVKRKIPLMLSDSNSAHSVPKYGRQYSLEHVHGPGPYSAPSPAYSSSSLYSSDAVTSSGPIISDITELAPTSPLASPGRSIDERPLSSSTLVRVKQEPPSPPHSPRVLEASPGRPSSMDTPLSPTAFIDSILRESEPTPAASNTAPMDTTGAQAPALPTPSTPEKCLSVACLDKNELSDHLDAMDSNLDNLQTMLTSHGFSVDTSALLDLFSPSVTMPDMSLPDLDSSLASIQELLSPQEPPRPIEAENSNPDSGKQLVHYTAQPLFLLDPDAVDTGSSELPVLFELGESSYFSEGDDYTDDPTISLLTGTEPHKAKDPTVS
Experiment: HSF1 potentiators in luciferase reporter cells, confirmation, cell-based, NIH3T3, luminescence, dose retest (AID 435004);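 note: stress induced by proteasome inhibitor MG132 added 30 min after compound; luciferase reporter driven by HSF1 response element in NIH3T3 cells; actives raise luminescence as potentiators of the MG132 stress response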
Format: functional
Calls of active or inactive are those of the source.
Choose the fitting class; nothing outside true (active), false (inactive) is accepted.

**Q:** Test call, this compound: Cc1ccccc1Nc1nnc(C)c(O)n1
**A:** false

**Q:** Next up: COc1ccc(SCC2CN(C)CCC2c2ccc(F)cc2)cc1 (centres undefined)
**A:** false

**Q:** Next up: O=C1C=CC(=O)N1N(c1ccccc1)c1ccccc1
**A:** true

**Q:** Next up: CCN(CC(=O)Nc1cccc(OC)c1)CC(=O)Nc1ccc(Br)c(C)c1
**A:** true

---

Target: Protein RecA (Mycobacterium tuberculosis, UniProt P9WHJ3)
Assay: Fluorescence Cell-Free Homogeneous Dose Retest to Identify Inhibitors of RecA-Intein Splicing Activity. [Related pubchem assays (depositor defined):AID2097, AID2223, AID489010, AID492950]
Type: functional
Active and inactive are the calls of the source.
endpoint-label: EC50

**Q:** I'd like to know its EC50. The molecule in question is Cc1onc(-c2ccccc2)c1-c1nc2cc(Cl)ccc2c(=O)o1
**A:** 158 µM (active)

**Q:** Next up: C=CSc1sc(Cl)c(N2CCOCC2)c1[N+](=O)[O-]
**A:** 54.6 µM (active)

**Q:** Next up: CCN(CCN(C)C)C(=O)c1ccc2c(c1NCCO)C(=O)c1ccccc1C2=O
**A:** < 0.018 µM (active)

---

Target: Cytochrome P450 3A4 (Homo sapiens, UniProt P08684)
Sequence (P08684 whole entry): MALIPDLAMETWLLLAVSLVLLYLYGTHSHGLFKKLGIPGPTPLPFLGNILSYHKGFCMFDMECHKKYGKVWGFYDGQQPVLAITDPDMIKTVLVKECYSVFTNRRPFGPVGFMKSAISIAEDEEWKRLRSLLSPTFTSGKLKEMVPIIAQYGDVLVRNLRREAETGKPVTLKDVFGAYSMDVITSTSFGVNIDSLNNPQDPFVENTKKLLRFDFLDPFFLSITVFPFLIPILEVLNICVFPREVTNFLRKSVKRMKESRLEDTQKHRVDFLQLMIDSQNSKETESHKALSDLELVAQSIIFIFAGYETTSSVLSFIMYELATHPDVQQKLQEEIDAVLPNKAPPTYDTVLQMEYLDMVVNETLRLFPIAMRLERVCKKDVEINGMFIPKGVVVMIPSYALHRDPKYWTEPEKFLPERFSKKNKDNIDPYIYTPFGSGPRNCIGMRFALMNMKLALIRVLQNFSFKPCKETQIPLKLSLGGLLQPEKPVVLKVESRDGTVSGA
endpoint-label: AC50

**Q:** Request - read-out AC50 | tested on Cytochrome P450 3A4 (Homo sapiens, UniProt P08684) | molecule Cc1ccc(NNS(=O)(=O)c2ccc(C)cc2)cc1;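 note: CYP3A4 tested as one member of a cytochrome P450 panel screen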
**A:** 28.2 µM (inconclusive)

**Q:** Next up: Cc1ccc2c(c1)NCC(C(=O)NC1CCCCC1)O2 (stereo unspecified)
**A:** 31.6 µM (inconclusive)

**Q:** Next up: COc1ccc(-n2c(=O)c(-c3cccs3)nc3cnc(Nc4cccc(OC)c4)nc32)cc1
**A:** 1.58 µM (inconclusive)

**Q:** Next up: C[C@H](CC(C#N)(c1ccccc1)c1ccccc1)N1CCCCC1
**A:** 3.98 µM (inconclusive)

**Q:** Next up: CCOC(=O)c1cc2c(=O)n3ccccc3nc2n(CCOC)/c1=N\C(=O)C(C)(C)C
**A:** 31.6 µM (inconclusive)

**Q:** Next up: NCCCP(=O)(O)O
**A:** 0.158 µM (inconclusive)

**Q:** Next up: Cc1nc2c(ccc3nc(NC(=O)c4ccc(S(=O)(=O)N(C)C)cc4)sc32)s1
**A:** 3.55 µM (inconclusive)

**Q:** Next up: c1ccc(-c2cccc(N3CC[C@@]4(CCCNC4)C3)c2)cc1
**A:** 15.8 µM (inconclusive)

**Q:** Next up: Cc1cc(C)c(S(C)(=O)=O)c(Oc2ccc(C(C)(C)C)cc2)n1
**A:** 14.1 µM (inconclusive)

**Q:** Next up: CN1CCN(c2ncc3ncc(=O)n(Cc4ccc(F)cc4)c3n2)CC1
**A:** 15.8 µM (inconclusive)

**Q:** Next up: COc1ccccc1CN1CCCC2(CCN(C(=O)c3ccco3)CC2)C1
**A:** 25.1 µM (inconclusive)

**Q:** Next up: CCOC(=O)COc1ccc(/C=C/[N+](=O)[O-])c(OCC(=O)OCC)c1
**A:** 11.2 µM (inconclusive)

**Q:** Next up: CN(C)C(=O)c1ccc(-c2nccc(-n3ccnc3)n2)cc1
**A:** 3.16 µM (inconclusive)

**Q:** Next up: Cc1ccc(N/C([S-])=C(/C(=O)c2ccc(C)c([N+](=O)[O-])c2)[n+]2ccccc2)cc1C
**A:** 11.2 µM (inconclusive)

**Q:** Next up: N[C@@H](Cc1c[nH]cn1)C(=O)O
**A:** 0.794 µM (inconclusive)

**Q:** Next up: N#Cc1cc(-c2ccccc2)cnc1Sc1ccc(Cl)cc1
**A:** 12.6 µM (inconclusive)

**Q:** Next up: COC(=O)c1nn(-c2ccc(OC)cc2)c(=O)cc1Oc1cccc(Cl)c1
**A:** 39.8 µM (inconclusive)

**Q:** Next up: CN(C)c1ncnc2ccc(-c3ccoc3)cc12
**A:** 12.6 µM (inconclusive)

**Q:** Next up: CNC(=O)c1sc(-c2cccnc2)nc1C
**A:** 31.6 µM (inconclusive)

**Q:** Next up: Cc1cnc(CNc2ccnc(-c3c(C)noc3C)n2)cn1
**A:** 10 µM (inconclusive)

**Q:** Next up: Cn1cccc1CNCCc1ccccc1
**A:** 31.6 µM (inconclusive)

Value source: ChEMBL document CHEMBL1201862
